Listing: PREEMERGENCE HERBICIDAL ACTIVITY (% CONTROL) IPOSS of selected compounds
- System: morningglory (Ipomea lacunosa or Ipomea hederacea)
- assay.protocol: Preemergence herbicidal activity, morningglory
- Format: in vivo
- applied.conditions: Rate of Application 0.3 Kg/Ha, examined after 12-17 days
# value in %; strip the unit string

Consider the following illustrative entries.
>>> print(df.to_string())
                                   compound  meas_value
0  Cn1c(C(F)(F)F)cc(=O)n(-c2ccc(Cl)c3cc(C(C)(C)C)oc23)c1=O          90
1  COCc1nc2c(-n3c(=O)cc(C(F)(F)F)n(C)c3=O)c(F)cc(Br)c2o1         100
2  CC(F)c1cc2c(Cl)cc(F)c(-n3c(=O)cc(C(F)(F)F)n(C)c3=O)c2o1 (centres unmarked)         100

For `Cn1c(C(F)(F)F)cc(=O)n(-c2c(F)cc(Br)c3oc(N)nc23)c1=O` , write its PREEMERGENCE HERBICIDAL ACTIVITY (% CONTROL) IPOSS.
75

For `Cn1c(C(F)(F)F)cc(=O)n(-c2c(F)cc(Cl)c3cc(CCC(=O)O)oc23)c1=O` , write its PREEMERGENCE HERBICIDAL ACTIVITY (% CONTROL) IPOSS.
100

For `CCCCc1cc2c(Cl)ccc(-n3c(=O)cc(C(F)(F)F)n(C)c3=O)c2o1` , write its PREEMERGENCE HERBICIDAL ACTIVITY (% CONTROL) IPOSS.
50

For `Cn1c(C(F)(F)F)cc(=O)n(-c2c(F)cc(Cl)c3nc(CCCc4ccccc4)[nH]c23)c1=O` , write its PREEMERGENCE HERBICIDAL ACTIVITY (% CONTROL) IPOSS.
100

For `CC(=O)Nc1nc2c(-n3c(=O)cc(C(F)(F)F)n(C)c3=O)c(F)cc(Br)c2o1` , write its PREEMERGENCE HERBICIDAL ACTIVITY (% CONTROL) IPOSS.
100

---

Listing: Postemergence herbicidal activity (% control) WHT of selected compounds
- System: wheat (Triticum aestivum var. Lew)
- assay.protocol: Postemergence herbicidal activity, wheat
- Type: in vivo
- applied.conditions: rate of application 0.3 Kg/Ha, rated after 12-17 days
Answer format reminder: number followed by unit.

Consider the following illustrative entries.
>>> df
                                   compound  meas_value
0  COC(=O)Cc1nc2c(-n3c(=O)cc(C(F)(F)F)n(C)c3=O)c(F)cc(Br)c2o1 [Compound 49]         70%
1  Cn1c(C(F)(F)F)cc(=O)n(-c2c(F)cc(Cl)c3oc(C(C)(C)C)nc23)c1=O [Compound 30]         80%
2  Cn1c(C(F)(F)F)cc(=O)n(-c2c(F)cc(Cl)c3cc(C(C)(C)C)oc23)c1=O [Compound 227]         60%
3  Cn1c(C(F)(F)F)cc(=O)n(-c2c(F)cc(Cl)c3cc(CCCC#N)oc23)c1=O [Compound 256]         80%
4  Cn1c(C(F)(F)F)cc(=O)n(-c2c(F)cc(Br)c3oc(N)nc23)c1=O [Compound 98]         10%

For Cn1c(C(F)(F)F)cc(=O)n(-c2c(F)cc(Br)c3oc(NS(C)(=O)=O)nc23)c1=O [Compound 108] , write its Postemergence herbicidal activity (% control) WHT.
20%

For Cn1c(C(F)(F)F)cc(=O)n(-c2ccc(Cl)c3cc(CBr)oc23)c1=O [Compound 232] , write its Postemergence herbicidal activity (% control) WHT.
50%

For CC(=O)OCc1nc2c(-n3c(=O)cc(C(F)(F)F)n(C)c3=O)c(F)cc(Br)c2o1 [Compound 101] , write its Postemergence herbicidal activity (% control) WHT.
50%
